Recorded measurements of pIC50, one per entry
TARGET OF ASSAY: HCV1b NS5B polymerase delta 21 (Hepatitis C virus genotype 1b)
Construct: purified HCV1b NS5B polymerase delta 21
Sequence (P26663 2420-2989): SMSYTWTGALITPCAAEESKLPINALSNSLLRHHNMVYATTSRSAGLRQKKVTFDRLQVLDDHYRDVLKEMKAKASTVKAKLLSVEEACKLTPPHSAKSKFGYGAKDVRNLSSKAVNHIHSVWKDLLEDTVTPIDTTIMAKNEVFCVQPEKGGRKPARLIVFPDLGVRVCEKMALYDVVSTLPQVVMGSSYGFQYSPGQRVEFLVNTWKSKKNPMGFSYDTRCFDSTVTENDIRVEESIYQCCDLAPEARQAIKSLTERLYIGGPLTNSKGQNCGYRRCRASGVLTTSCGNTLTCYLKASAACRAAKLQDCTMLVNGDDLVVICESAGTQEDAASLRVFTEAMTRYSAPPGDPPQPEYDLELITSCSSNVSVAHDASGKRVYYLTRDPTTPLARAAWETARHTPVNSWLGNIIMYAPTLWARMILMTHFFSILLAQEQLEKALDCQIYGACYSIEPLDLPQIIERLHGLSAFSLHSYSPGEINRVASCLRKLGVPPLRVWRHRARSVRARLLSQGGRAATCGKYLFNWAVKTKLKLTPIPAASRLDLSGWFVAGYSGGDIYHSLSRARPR
METHOD SUMMARY: RNA-Dependent RNA HCV NS5B (Polymerase) Assay and IC50 Determination
Format: biochemical
Description: RNA-Dependent RNA HCV NS5B (Polymerase) Assay and IC50 Determination In vitro RNA-dependent RNA polymerase activity was determined in a reaction mixture (50 μL) containing 50 mM Tris-HCl, pH 7.5, 5 mM MgCl2, 1 mM dithiothreitol, 0.5% Triton® X-100, 10 μM of UTP, 0.1-0.5 μCi of α-^32P UTP (Perkin Elmer Life Sciences), 1 μg of polyA:U16 (Midland Oligo), and 0.6 μg of purified HCV1b NS5B polymerase delta 21. […] IC50 values were calculated using GraFit 6 and GraphPad Prism 5 from triplicate assays.
pIC50: −log10 of the molar value.

| COMPOUND | QUANTITY MEASURED | READING |
| --- | --- | --- |
| CC1CCC(C2=C(c3cc(-c4ccc(NC(=O)c5cscn5)cc4)sc3C(=O)O)CCN(Cc3ccccn3)C2)CC1 (stereo not shown) | pIC50 | > 5.52 |

IN: Record request: pIC50 value, item CCN1CCC(c2cc(C#CCC(C)C)sc2C(=O)O)=C(C2CCC(C)CC2)C1 (stereo not shown)
OUT: > 5.52

IN: Record request: pIC50 value, item CC1CCC(C2=C(c3cc(-c4ccc(NC(=O)c5cscn5)cc4)sc3C(=O)O)CCNC2)CC1 (stereo not shown)
OUT: > 5.52

IN: Record request: pIC50 value, item CC1CCC(C2=C(c3cc(-c4ccccc4)sc3C(=O)O)CCN(Cc3ccnc4ccccc34)C2)CC1 (stereo not shown)
OUT: < 5.00
